Biological target: hMAO-B (Homo sapiens, UniProt P27338)
Construct: purchased Sigma M7441
Sequence (P27338 1-520): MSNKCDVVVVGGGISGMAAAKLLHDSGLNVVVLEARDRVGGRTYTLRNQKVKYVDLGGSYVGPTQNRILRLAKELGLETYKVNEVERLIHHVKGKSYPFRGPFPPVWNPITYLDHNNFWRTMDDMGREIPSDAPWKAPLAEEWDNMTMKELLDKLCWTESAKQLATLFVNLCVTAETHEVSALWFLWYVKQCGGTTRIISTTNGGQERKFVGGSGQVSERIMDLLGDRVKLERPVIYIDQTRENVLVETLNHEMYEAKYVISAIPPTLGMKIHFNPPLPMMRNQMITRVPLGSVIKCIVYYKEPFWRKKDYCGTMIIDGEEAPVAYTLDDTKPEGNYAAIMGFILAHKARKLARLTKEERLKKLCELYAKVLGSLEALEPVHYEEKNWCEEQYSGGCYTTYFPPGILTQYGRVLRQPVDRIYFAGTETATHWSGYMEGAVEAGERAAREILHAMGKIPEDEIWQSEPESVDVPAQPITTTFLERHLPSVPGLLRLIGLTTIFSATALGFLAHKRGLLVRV
Test: MAO-B inhibition assay (Amplex Red, horseradish peroxidase-coupled)
Type: biochemical
Settings: at 10 μM; read-out: hMAO-B inhibition (IC50 hMAO-B)
observation.type: inhibition at 10 µM (%)
Numeric only. Scale: %

Completed entries (count: 4):
C[C@H](NC(=O)COc1ccc2c(=O)c(-c3ccc(O)cc3)coc2c1)c1ccc(F)cc1 : 29
CS(=O)(=O)Nc1ccc(-c2c(O)oc3cc(OCc4cccc(C(=O)O)c4)ccc3c2=O)cc1 : 30
COC(=O)c1cnc(COc2ccc3c(=O)c(-c4ccc(O)cc4)coc3c2)o1 : 34
O=c1c(-c2ccc(O)cc2)coc2cc(OCc3cnc(-c4ccccc4)o3)ccc12 : 17

Query: Report inhibition at 10 µM for O=c1c(-c2ccc(O)cc2)coc2cc(OCc3nnc(-c4ccc(F)cc4)o3)ccc12
Result: 12

Ref: patent US20090124672A1
